// reported IC50 for each item listed
Target: Recombinant full-length human IDO1 (Homo sapiens)
Construct: Recombinant full-length human IDO1 with a N-terminal hexahistidine tag; hexahistidine (His6) (N); made in house; host or cells: E. coli
Sequence (P14902 whole entry): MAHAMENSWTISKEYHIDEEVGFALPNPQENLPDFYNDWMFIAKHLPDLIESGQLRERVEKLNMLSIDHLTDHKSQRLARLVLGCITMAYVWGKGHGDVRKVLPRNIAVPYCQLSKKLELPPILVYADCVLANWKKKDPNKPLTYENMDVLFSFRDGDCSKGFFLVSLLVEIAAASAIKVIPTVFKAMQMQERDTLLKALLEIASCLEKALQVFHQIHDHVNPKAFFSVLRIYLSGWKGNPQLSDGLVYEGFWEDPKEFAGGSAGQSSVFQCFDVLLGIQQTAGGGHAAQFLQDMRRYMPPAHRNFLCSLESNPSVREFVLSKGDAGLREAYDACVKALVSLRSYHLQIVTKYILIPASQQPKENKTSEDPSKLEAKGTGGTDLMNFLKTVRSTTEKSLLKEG
Assay: IDO1 enzymatic assay (NFK quantified by LCMS)
Type: biochemical
Conditions: 2 nM enzyme, 5 μM L-tryptophan, pH6.5, 30 minutes pre-incubation at RT; mean values when measured multiple times; read-out: hIDO activity (IC50 in nM)
Report only the number, with the unit nM understood.

Here is how some compounds turned out for IC50.
| compound | study_target | IC50, nM |
| --- | --- | --- |
| N#Cc1cccc(-c2ccc(C(O)c3c(C4CC4)sc4cncn34)s2)c1 (racemic) | Recombinant full-length human IDO1 (Homo sapiens) | 238 |
| O=c1[nH]c2ccc(-n3cc(C(O)c4c(C5CC5)sc5cncn45)nn3)cc2o1 (racemic) | Recombinant full-length human IDO1 (Homo sapiens) | 5.36 |
| CCOc1ccc(-n2nnc(C(O)c3c(C4CC4)sc4cncn34)c2C)cc1Cl (racemic) | Recombinant full-length human IDO1 (Homo sapiens) | 14.1 |

Next, consider the following compound.
The value of IC50 recorded for Cc1cc(O)cc(-n2cc(C(O)c3c(C4CC4)sc4cncn34)nn2)c1 (racemic) when tested on Recombinant full-length human IDO1 (Homo sapiens) reads 27.2
